FYI, the data here is from the Immune Epitope Database (IEDB).

subject.of.test: HLA-B*57:01
assay.name: IEDB peptide-MHC binding, purified MHC/direct/fluorescence; filed as Kd, often an IC50 or EC50 that approximates it; bounds were set here for any values at or beyond the usual limits of such assays
setup.conditions: source organism: Bacillus anthracis
pKd: −log10 of the molar value.
readout: pKd

> print(dat)
   sequence.data  readout  meas.value
1      DTVLFNAGL      pKd      ≤ 4.70

====

subject.of.test: HLA-C*15:02
assay.name: IEDB peptide-MHC binding, purified MHC/direct/fluorescence; filed as Kd, often an IC50 or EC50 that approximates it; bounds were set here for any values at or beyond the usual limits of such assays
setup.conditions: source organism: Methylibium petroleiphilum PM1
readout: Kd (µM)

> print(dat)
   sequence.data  readout   u  meas.value
1      FQMGGIGPM       Kd  µM        2.18
